The entries below are paired with their reported CC50 at 1 day.
testMethodNotes: Cell viability: resazurin assay
Format: cell-based, human
reportedConditions: human, BEAS2B cells; n = 3-5

# annotated cases, reported CC50 at 1 day shown
Cc1cc(N2CCN(c3ccc(C(=O)Nc4ccc(Cl)cc4F)cc3)CC2)ccc1OC[C@@H]1CO[C@@](Cn2cncn2)(c2ccc(F)cc2F)C1 [Example 29]
> 13.9 µM
Cc1cc(N2CCN(c3ccc(C(=O)Nc4ccc(F)cn4)cc3)CC2)ccc1OC[C@@H]1CO[C@@](Cn2cncn2)(c2ccc(F)cc2F)C1 [Example 6]
> 14.6 µM
NS(=O)(=O)c1ccc(NC(=O)c2ccc(N3CCN(c4ccc(OCC5CO[C@@](Cn6cncn6)(c6ccc(F)cc6F)C5)c(F)c4)CC3)cc2)cc1 (stereo in doubt) [Example 22]
> 13.4 µM

Prompt line: Requested read-out: CC50 at 1 day. Entry: Cc1cc(N2CCN(c3ccc(C(=O)Nc4ccc(F)c(F)c4)cc3)CC2)ccc1OC[C@@H]1CO[C@@](Cn2cncn2)(c2ccc(F)cc2F)C1 [Example 27]
Response line: > 14.3 µM

Prompt line: Queued: Cc1nc(N2CCN(c3ccc(C(=O)Nc4ccc(F)cc4)cc3)CC2)ccc1OC[C@@H]1CO[C@@](Cn2cncn2)(c2ccc(F)cc2F)C1 [Example 3]
Response line: > 14.6 µM

Prompt line: Queued: CNS(=O)(=O)c1ccc(NC(=O)c2ccc(N3CCN(c4ccc(OC[C@@H]5CO[C@@](Cn6cncn6)(c6ccc(F)cc6F)C5)c(C)c4)CC3)cc2)cc1 [Example 20]
Response line: > 13.2 µM

Prompt line: Queued: COc1cc(N2CCN(c3ccc(OC[C@@H]4CO[C@@](Cn5cncn5)(c5ccc(F)cc5F)C4)c(C)c3)CC2)ccc1C(=O)Nc1ccc(F)cc1 [Example 35]
Response line: > 14 µM

---

testMethodNotes: Cell viability: resazurin assay
Format: cell-based, human
reportedConditions: human, BEAS2B cells; n = 3-5
Method: BEAS2B cells were seeded in 384-well plates (100 µL; 3000 / well /; BD Falcon, Catalogue No 353962) in RPMI-LHC8 (RPMI-1640 and LHC8 media combined in equal proportions) one day before experimentation. […] The fluorescence of each well at 545 nm (excitation) and 590 nm (emission) was determined using a multi-scanner (Clariostar: BMG Labtech). The percentage loss of cell viability was calculated for each well relative to vehicle (0.5% DMSO) treatment. […]
endpoint: CC50 at 1 day

# annotated cases, reported CC50 at 1 day shown
Cc1cc(N2CCN(c3ccc(C(=O)Nc4ccc(OC(F)(F)F)cn4)cc3)CC2)ccc1OC[C@@H]1CO[C@@](Cn2cncn2)(c2ccc(F)cc2F)C1 [Example 39]
> 13.3 µM
Cc1cc(N2CCN(c3ccc(C(=O)Nc4cccc(F)c4)cc3)CC2)ccc1OC[C@@H]1CO[C@@](Cn2cncn2)(c2ccc(F)cc2F)C1 [Example 14]
> 14.6 µM
Cc1cc(N2CCN(c3ccc(C(=O)Nc4ccc(C#N)cn4)cc3)CC2)ccc1OC[C@@H]1CO[C@@](Cn2cncn2)(c2ccc(F)cc2F)C1 [Example 7]
> 14.5 µM
Cc1cc(N2CCN(c3ccc(C(=O)Nc4cc(F)ccc4F)cc3)CC2)ccc1OC[C@@H]1CO[C@@](Cn2cncn2)(c2ccc(F)cc2F)C1 [Example 26]
> 14.3 µM
N#Cc1ccc(NC(=O)c2ccc(N3CCN(c4ccc(OCC5CO[C@@](Cn6cncn6)(c6ccc(F)cc6F)C5)c(Cl)c4)CC3)cc2)cc1 (stereo in doubt) [Example 10]
> 14.1 µM

Next item in the queue.
Prompt line: Requested read-out: CC50 at 1 day. Entry: Cc1cc(N2CCN(c3ccc(C(=O)Nc4ccc(C#N)cc4)cc3)CC2)ccc1OC[C@@H]1CO[C@@](Cn2cncn2)(c2ccc(F)cc2F)C1 [Example 9]
Response line: > 14.5 µM

---

Test system: Aspergillus fumigatus NCPF2010
testMethodNotes: Broth microdilution assay (modified EUCAST)
Assay type: cell-based
reportedConditions: Aspergillus fumigatus, NCPF2010, read-out: MIC75 against Aspergillus fumigatus isolate NCPF2010
endpoint: MIC (µM)
Return type: number; implicit unit µM.

COc1cc(C(=O)Nc2ccc(F)cc2)ccc1N1CCN(c2ccc(OC[C@@H]3CO[C@@](Cn4cncn4)(c4ccc(F)cc4F)C3)c(C)c2)CC1
0.0446
Cc1cc(N2CCN(c3ccc(C(=O)Nc4c(F)cc(F)cc4F)cc3)CC2)ccc1OC[C@@H]1CO[C@@](Cn2cncn2)(c2ccc(F)cc2F)C1
0.0439

Next item in the queue.
Prompt line: Requested read-out: MIC. Entry: Cc1cc(N2CCN(c3ccc(C(=O)Nc4ccc(F)cc4F)cc3)CC2)ccc1OC[C@@H]1CO[C@@](Cn2cncn2)(c2ccc(F)cc2F)C1
Response line: 0.007

---

System: aspergillus fumigatus (ATCC 13073 [strain: NIH 5233])
testMethodNotes: In vivo anti-fungal activity, prophylactic and therapeutic treatment of infected immunocompromised neutropenic mice
Parameters: species or system A/J mice
reportedConditions: prophylactic treatment (days 0, 1, 2 and 3); 0.4 mg/mL
The entries below are paired with their reported % Inhibition versus Infected Controls, Lung Fungal Load.
Return type: number; implicit unit %.

CC[C@@H]([C@H](C)O)n1ncn(-c2ccc(N3CCN(c4ccc(OC[C@@H]5CO[C@@](Cn6cncn6)(c6ccc(F)cc6F)C5)cc4)CC3)cc2)c1=O [Posaconazole, reference compound]
44

Prompt line: Requested read-out: % Inhibition versus Infected Controls, Lung Fungal Load. Entry: O=C(Nc1ccc(F)cc1)c1ccc(N2CCN(c3ccc(OCC4CO[C@@](Cn5cncn5)(c5ccc(F)cc5F)C4)c(F)c3)CC2)cc1 (stereo in doubt)
Response line: 83

Prompt line: Queued: Cc1cc(N2CCN(c3ccc(C(=O)Nc4ccc(F)cc4F)cc3)CC2)ccc1OC[C@@H]1CO[C@@](Cn2cncn2)(c2ccc(F)cc2F)C1
Response line: 25

Prompt line: Queued: Cc1cc(N2CCN(c3ccc(C(=O)Nc4ccc(C#N)cc4F)cc3)CC2)ccc1OC[C@@H]1CO[C@@](Cn2cncn2)(c2ccc(F)cc2F)C1
Response line: 56

---

Test system: aspergillus fumigatus infection of BEAS2B cells
testMethodNotes: Aspergillus fumigatus infection of bronchial epithelial cells (GM in supernatant)
Type: cell-based
reportedConditions: bronchial epithelial cells infected with Aspergillus fumigatus; read-out: MIC50 Infection of BEAS2B cells
The entries below are paired with their reported log10 of MIC50.
All values: base-10 log of MIC50 in µM.

# annotated cases, reported log10 of MIC50 shown
N#Cc1ccc(NC(=O)c2ccc(N3CCN(c4ccc(OC[C@@H]5CO[C@@](Cn6cncn6)(c6ccc(F)cc6F)C5)c(CO)c4)CC3)cc2)nc1 [Example 38]
-2.31
COc1cc(C(=O)Nc2ccc(F)cc2)ccc1N1CCN(c2ccc(OC[C@@H]3CO[C@@](Cn4cncn4)(c4ccc(F)cc4F)C3)c(C)c2)CC1 [Example 34]
-1.66
Cc1cc(N2CCN(c3ccc(C(=O)Nc4ccc(OC(F)F)c(F)c4)cc3)CC2)ccc1OC[C@@H]1CO[C@@](Cn2cncn2)(c2ccc(F)cc2F)C1 [Example 25]
-0.64
Cc1cc(N2CCN(c3ccc(C(=O)Nc4ccc(S(=O)(=O)N(C)C)cc4)cc3)CC2)ccc1OC[C@@H]1CO[C@@](Cn2cncn2)(c2ccc(F)cc2F)C1 [Example 21]
-2.41
Cc1cc(N2CCN(c3ccc(C(=O)Nc4ccc(Cl)cc4F)cc3)CC2)ccc1OC[C@@H]1CO[C@@](Cn2cncn2)(c2ccc(F)cc2F)C1 [Example 29]
-1.84

Prompt line: Requested read-out: log10 of MIC50. Entry: Cc1cc(N2CCN(c3ccc(C(=O)Nc4ccc(C#N)cn4)cc3)CC2)ccc1OC[C@@H]1CO[C@@](Cn2cncn2)(c2ccc(F)cc2F)C1 [Example 7]
Response line: -1.90

Prompt line: Queued: O=C(Nc1ccc(F)cc1)c1ccc(N2CCN(c3ccc(OC[C@@H]4CO[C@@](Cn5cncn5)(c5ccc(F)cc5F)C4)c(CO)c3)CC2)cc1 [Example 16]
Response line: -3.09

Prompt line: Queued: O=C(Nc1ccc(F)cn1)c1ccc(N2CCN(c3ccc(OCC4CO[C@@](Cn5cncn5)(c5ccc(F)cc5F)C4)c(F)c3)CC2)cc1 (stereo in doubt) [Example 40]
Response line: -2.16

Prompt line: Queued: Cc1cc(N2CCN(c3ccc(C(=O)Nc4ccc(Cl)c(F)c4)cc3)CC2)ccc1OC[C@@H]1CO[C@@](Cn2cncn2)(c2ccc(F)cc2F)C1 [Example 30]
Response line: 0.02

Prompt line: Queued: N#Cc1ccc(NC(=O)c2ccc(N3CCN(c4ccc(OCC5CO[C@@](Cn6cncn6)(c6ccc(F)cc6F)C5)c(Cl)c4)CC3)cc2)cc1 (stereo in doubt) [Example 10]
Response line: -1.84

Prompt line: Queued: Cc1cc(N2CCN(c3ccc(C(=O)Nc4ccc(F)cn4)cc3)CC2)ccc1OC[C@@H]1CO[C@@](Cn2cncn2)(c2ccc(F)cc2F)C1 [Example 6]
Response line: -1.62

Prompt line: Queued: Cc1cc(N2CCN(c3ccc(C(=O)Nc4ccc(C#N)cc4F)cc3)CC2)ccc1OC[C@@H]1CO[C@@](Cn2cncn2)(c2ccc(F)cc2F)C1 [Example 23]
Response line: -2.47

Where do the numbers come from? From patent US20230295133A1.
